- System: SK-MEL-28
- assay_info: SRB colorimetric cell growth inhibition assay, SK-MEL-28
- Type: cell-based
- condition: Homo sapiens, SK-MEL-28, read-out: LC50 MEL-28, MEL-28; LC=cell killing (cytotoxic effect)
Measured CC50 accompanies every entry in the list below.
I only need the number, in µM, no unit after it.

>  <molecule>
COc1cc(-c2c3c4cc(OC)c(OC(=O)[C@@H](N)CCCCNC(=O)OCc5ccccc5)cc4oc(=O)c3n3ccc4c(OC(=O)[C@@H](N)CCCCNC(=O)OCc5ccccc5)c(OC)c(OC)cc4c23)ccc1OC(=O)[C@@H](N)CCCCNC(=O)OCc1ccccc1 [Compound 44]

>  <CC50, µM>
7.6

$$$$

Next, consider the following molecule.
(Q) Give the reported CC50 for this molecule. COc1cc(-c2c3n(c4c(=O)oc5cc(OC(=O)[C@H](CO)NC(=O)OC(C)(C)C)c(OC)cc5c24)CCc2c-3cc(OC)c(OC)c2OC(=O)[C@H](CO)NC(=O)OC(C)(C)C)ccc1OC(=O)[C@H](CO)NC(=O)OC(C)(C)C [Compound 60]
(A) 9.15
